Data origin, for the record: paper PMC9408895

Molecular target: T1, senescence-suppressed protein phosphatase SSPP (His-SSPP)
T1 chain: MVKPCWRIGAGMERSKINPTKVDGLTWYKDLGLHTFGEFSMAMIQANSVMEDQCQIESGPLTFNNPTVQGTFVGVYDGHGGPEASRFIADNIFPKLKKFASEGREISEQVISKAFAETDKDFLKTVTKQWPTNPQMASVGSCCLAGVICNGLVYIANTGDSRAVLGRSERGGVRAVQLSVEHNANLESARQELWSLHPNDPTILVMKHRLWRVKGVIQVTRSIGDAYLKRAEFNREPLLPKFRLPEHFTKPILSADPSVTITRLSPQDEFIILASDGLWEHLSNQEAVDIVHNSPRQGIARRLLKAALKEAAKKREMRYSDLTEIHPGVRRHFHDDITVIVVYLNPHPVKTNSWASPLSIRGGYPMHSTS
Experiment: in vitro pull-down (His-SSPP-bound Ni-NTA beads, anti-GST blot)
Details: chain shown with the change; 20% pull-down, 10% input loaded; parent: 1.00
I'd appreciate it if you could supply ratio to parent values for the items below.

binder | measurementName | assayResult
GST-AtSARK-CD, cytoplasmic domain of Arabidopsis thaliana senescence-associated receptor-like kinase AtSARK, wild type, Q8VYT3 Y413E (protein) CWYRKKQRRLLILNLNDKQEEGLQGLGNLRSFTFRELHVYTDGFSSKNILGAGGFGNVYRGKLGDGTMVAVKRLKDINGTSGDSQFRMELEMISLAVHKNLLRLIGYCATSGERLLVYPYMPNGSVASKLKSKPALDWNMRKRIAIGAARGLLELHEQCDPKIIHRDVKAANILLDECFEAVVGDFGLAKLLNHADSHVTTAVRGTVGHIAPEYLSTGQSSEKTDVFGFGILLLELITGLRALEFGKTVSQKGAMLEWVRKLHEEMKVEELLDRELGTNYDKIEVGEMLQVALLCTQYLPAHRPKMSEVVLMLEGDGLAERWAASHNHSHFYHANISFKTISSLSTTSVSRLDAHCNDPTYQMFGSSAFDDDDDHQPLDSFAMELSGPR | ratio to parent | 0.12

Turning to the following binder.
Prompt line: Name the recorded ratio to parent for GST-AtSARK-CD, cytoplasmic domain of Arabidopsis thaliana senescence-associated receptor-like kinase AtSARK, wild type, Q8VYT3 S384D (protein) CWYRKKQRRLLILNLNDKQEEGLQGLGNLRSFTFRELHVYTDGFSSKNILGAGGFGNVYRGKLGDGTMVAVKRLKDINGTSGDSQFRMELEMISLAVHKNLLRLIGYCATSGERLLVYPYMPNGDVASKLKSKPALDWNMRKRIAIGAARGLLYLHEQCDPKIIHRDVKAANILLDECFEAVVGDFGLAKLLNHADSHVTTAVRGTVGHIAPEYLSTGQSSEKTDVFGFGILLLELITGLRALEFGKTVSQKGAMLEWVRKLHEEMKVEELLDRELGTNYDKIEVGEMLQVALLCTQYLPAHRPKMSEVVLMLEGDGLAERWAASHNHSHFYHANISFKTISSLSTTSVSRLDAHCNDPTYQMFGSSAFDDDDDHQPLDSFAMELSGPR .
Response line: 1.04
